Field: protein stability index. Provide a value for each of the sequences that follow.
# protocol.notes: protein stability index of a GFP-peptide fusion (yeast GPS) (PSI 1-4); higher = more stable; sorted into four equal gates, so the index is relative within each strain
# measurement.setup: pdr5∆

(Q) Which protein stability index value belongs to PKNSSSPVQIAFNRFMA [SSN8] ?
(A) 1.74

(Q) For ENGQRDLDRIAAQTLEE [RPS19A] then?
(A) 3.16

(Q) For DLSSAASASGAAGAGAA [FAS2] then?
(A) 1.51

(Q) For DSLNDDLNKENKLLRRK [YIL149C/MLP2] then?
(A) 3.24

(Q) For TGNIKHEDLVNSIESKN [COR1] then?
(A) 2.99

(Q) For GRGGSGWKPYYKLFIWL [YML031W/NDC1] then?
(A) 1.78

(Q) For MGEAQTGANFDDVERGV [REC8] then?
(A) 2.98

(Q) For VPNSIGNIFSNIGTPSF [SNF5] then?
(A) 2.6

(Q) For ELKKYMDKKILLNINGS [SMX2] then?
(A) 2.25

(Q) For PYDSNNSNTNLNSLSPQ [SWI1] then?
(A) 2.87

(Q) For PAVKQWDLLPEPIRFLP [SWI1] then?
(A) 2.27

(Q) For GHRMKNAQSKLSLTLNT [SNF2] then?
(A) 1.73

(Q) For SQNDGFVIIRGSQILSG [RPO31] then?
(A) 3.13

(Q) For IQTVVISLLALPHSPLW [YML031W/NDC1] then?
(A) 1.58

(Q) For NKLSSILQNEHDYWNKI [SRB4] then?
(A) 2.41

(Q) For SIRSRRPYQVNVLIGGY [PRE1] then?
(A) 2.88

(Q) For QAIAKNNPQVVNAITVA [SNF5] then?
(A) 2.02

(Q) For PLLDIVLKADRSWNEPS [YML103C/NUP188] then?
(A) 2.86

(Q) For SSDELKVIEEQLKHTKL [SMC4] then?
(A) 3.3

(Q) For ELLREWLETYSENRDKF [IRR1] then?
(A) 3.43

(Q) For KYACLAIRKNGQIDFWY [SIN4] then?
(A) 2.16

(Q) For MRLIKRVRAESLHSNSF [YJL039C/NUP192] then?
(A) 1.64

(Q) For MDFFNLNNNNNNNNTTT [SWI1] then?
(A) 3.33

(Q) For LQKQMGIGSLTDLMSIV [RPC34] then?
(A) 2.04

(Q) For TDSRTGQSTILVGSEIY [CDC53] then?
(A) 2.64

(Q) For KSNGLAPEIPEDLYYLI [RPS13] then?
(A) 2.83

(Q) For AGFTHKLSNWLFGWNDL [YDL088C/ASM4] then?
(A) 3.06

(Q) For ARSGLRIGRIEDVTPVP [RPS14A] then?
(A) 2.91

(Q) For GDKVVVTIWYRAPELLL [SSN3] then?
(A) 1.78

(Q) For YNMYDAYGNWFNGLKPL [PRP8] then?
(A) 3.36
